# TARGET_DESC: RetSDISMED2 (PaRetSp); RetS (residues 41-185) (Pseudomonas aeruginosa)
# Sequence (Q9HUV7 41-185): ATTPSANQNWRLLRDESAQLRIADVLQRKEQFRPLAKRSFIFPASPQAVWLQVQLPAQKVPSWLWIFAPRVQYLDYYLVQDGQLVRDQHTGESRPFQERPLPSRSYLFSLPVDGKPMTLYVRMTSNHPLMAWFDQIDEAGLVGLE
# EXPERIMENT_SUMMARY: isothermal titration calorimetry
pKd: −log10 of the molar value.
OBSERVABLE: pKd

                                   compound                               target_desc  observable  reported_value
0  CCCCc1oc2ccc(NS(C)(=O)=O)cc2c1C(=O)c1ccc(OCCCN(CCCC)CCCC)cc1  RetSDISMED2 (PaRetSp); RetS (residues 41-185) (Pseudomonas aeruginosa)         pKd           ~5.44

Now turn to the next compound.
QUERY: Provide the documented pKd with RetSDISMED2 (PaRetSp); RetS (residues 41-185) (Pseudomonas aeruginosa) as the system for NC[C@H](O)c1ccc(O)c(O)c1 [norepinephrine]
RESULT: ~6.00
